# test-target: Caspase-1 (Homo sapiens) (UniProt P29466)
# Sequence (P29466 120-297 limits assumed): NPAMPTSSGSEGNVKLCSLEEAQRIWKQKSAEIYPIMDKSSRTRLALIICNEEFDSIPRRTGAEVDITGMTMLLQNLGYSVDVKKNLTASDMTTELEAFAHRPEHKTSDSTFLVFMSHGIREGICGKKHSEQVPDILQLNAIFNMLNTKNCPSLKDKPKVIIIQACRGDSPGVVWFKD
# Sequence (P29466 317-404 limits assumed): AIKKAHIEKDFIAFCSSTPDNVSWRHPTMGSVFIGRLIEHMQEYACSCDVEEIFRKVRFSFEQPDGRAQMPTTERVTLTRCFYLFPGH
# protocol-text: Inhibition of recombinant human caspase-1 expressed in Escherichia coli BL21 cells assessed as remaining activity at 100 uM using […] as substrate incubated for 30 mins relative to control
Listed compounds paired with reported Activity
Your answer should be a plain number; it is taken to be in %.

Observe how each entry below is paired with its result.
| smiles-structure | test-target | unit-abbrev | Activity |
| --- | --- | --- | --- |
| COC(=O)N1C(=O)[C@@]2(C=C[C@H](N=C=S)C[C@H]2C(=O)OC(C)(C)C)c2ccccc21 | Caspase-1 (Homo sapiens) (UniProt P29466) | % | 34 |
| CC(C)(C)OC(=O)[C@@H]1C[C@@H](NC(=S)NN)C=C[C@@]12C(=O)N(C(=O)OCc1ccccc1)c1ccccc12 | Caspase-1 (Homo sapiens) (UniProt P29466) | % | 84 |
| O=C(Oc1ccccc1)[C@@H]1C[C@@H](N=C=S)C=C[C@@]12C(=O)N(C(=O)OCc1ccccc1)c1ccccc12 | Caspase-1 (Homo sapiens) (UniProt P29466) | % | 56 |
| CC(C)(C)OC(=O)[C@@H]1C[C@@H](N=C=S)C=C[C@@]12C(=O)N(C(=O)OCc1ccccc1)c1ccc(F)cc12 | Caspase-1 (Homo sapiens) (UniProt P29466) | % | 17 |

Query block: Consider the compound CC1=C[C@@]2(C(=O)N(C(=O)OCc3ccccc3)c3ccccc32)[C@H](C(=O)OC(C)(C)C)C[C@@]1(C)N=C=S and give its recorded Activity.
Result block: 91

Query block: Consider the compound CC(C)(C)OC(=O)[C@@H]1C[C@@H](N=C=S)C=C[C@@]12C(=O)N(C(=O)OCc1ccccc1)c1c(F)cccc12 and give its recorded Activity.
Result block: 13

Query block: Consider the compound CC(C)(C)OC(=O)[C@@H]1C[C@@H](N=C=S)C=C[C@@]12C(=O)N(C(=O)OCc1ccccc1)c1cc(F)c(F)cc12 and give its recorded Activity.
Result block: 21
